Biological target: hGIPR (Homo sapiens, UniProt P48546)
Sequence (P48546 22-466): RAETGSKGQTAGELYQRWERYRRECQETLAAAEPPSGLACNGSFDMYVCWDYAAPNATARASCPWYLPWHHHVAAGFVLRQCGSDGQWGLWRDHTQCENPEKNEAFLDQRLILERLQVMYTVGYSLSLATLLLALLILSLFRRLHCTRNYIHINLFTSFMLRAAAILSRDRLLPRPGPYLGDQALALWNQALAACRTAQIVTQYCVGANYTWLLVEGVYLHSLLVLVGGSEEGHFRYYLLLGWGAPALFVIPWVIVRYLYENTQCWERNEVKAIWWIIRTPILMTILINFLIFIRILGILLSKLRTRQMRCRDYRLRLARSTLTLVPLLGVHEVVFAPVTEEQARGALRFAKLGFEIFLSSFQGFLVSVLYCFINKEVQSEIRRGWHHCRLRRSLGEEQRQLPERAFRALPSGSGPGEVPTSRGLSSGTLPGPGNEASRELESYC
Assay: Functional cAMP activity in the presence of 1% HSA
Assay type: cell-based
Settings: read-out: cAMP Rel EC50, hGIPR
Starred links: 1 amine or outer side, 2 acyl side, 3 side chain; linkers in the order of their positions; H or OH if unused. Non-standard residues stand in square brackets, D forms with d. Groups on a side chain read outwards from the residue. *: point of attachment. C18 diacid = O=C(O)CCCCCCCCCCCCCCCCC(=O)*; αMePhe(2-F) = C[C@](N)(Cc1ccccc1F)C(=O)O; γGlu = O=C(O)[C@H](CCC(=O)[*:2])N[*:1]; αMe4Pal = C[C@](N)(Cc1ccncc1)C(=O)O; αMeY = C[C@](N)(Cc1ccc(O)cc1)C(=O)O; 4Pal = N[C@@H](Cc1ccncc1)C(=O)O; αMeL = CC(C)C[C@](C)(N)C(=O)O; αMeS = C[C@](N)(CO)C(=O)O; Orn = NCCC[C@H](N)C(=O)O; AEEA = NCCOCCOCC(=O)O; Aib = CC(C)(N)C(=O)O
Endpoint name: pEC50
Reminder that pEC50 means the negative base-10 logarithm of the concentration expressed in mol/L.

Worked cases, pEC50 given:
H-Y[Aib]QGTFTSD[4Pal][αMeS]Q[αMeL]LD[Orn]K([dE-γGlu-C18 diacid])AQ[αMe4Pal]QFIE[αMeY]LIA[Aib]GPSSGAPPPSGGGE-NH2 [Example 1185] ... 8.64
H-Y[Aib]QGTFTSDFS[Orn][αMeL]LDKK([AEEA-γGlu-γGlu-C18 diacid])AQ[Aib]AFIEYLLE[Aib]GPSSGAPPPSGS-NH2 [Example 192] ... 8.01

Note down pEC50 recorded for H-Y[Aib]QGTFTSD[4Pal]S[Orn][αMeL]LD[Orn]K([Glu-γGlu-C18 diacid])AQ[αMe4Pal]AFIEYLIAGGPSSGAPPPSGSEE-NH2 [Example 1061]
7.25

Note down pEC50 recorded for H-Y[Aib]QGT[αMePhe(2-F)]TSD[4Pal]SI[αMeL]LD[Orn]K([AEEA-γGlu-C18 diacid])AQ[αMe4Pal][Orn]FI[dE][αMeY]LIEGGPSSGEPPPEGE-NH2 [Example 675]
8.94

Note down pEC50 recorded for H-Y[Aib]QGT[αMePhe(2-F)]TSD[4Pal][αMeS]I[αMeL]LD[Orn]K([AEEA-γGlu-C18 diacid])AQ[αMe4Pal]EFI[dE][αMeY]LVEGGPSSGEPPPGGE-NH2 [Example 1155]
9.05
